Cited source: paper PMC12596731

Test: Cys-Lys stapling of unprotected peptides with unsymmetrical linker (1.5 equiv): Cys thiol displaces phthalimide from N-thiophthalimide (disulfide, ~1 min), then ring closure by Lys amine attack on pentafluorophenyl ester with DIPEA (4 equiv)
Conditions: the molecule shown is the open-chain precursor; 37-membered ring; CH3CN:H2O 3:1; 25.0 °C; 0.167 h
reported.metric: ring closure, isolated yield (%)

{"columns": ["molecule", "reported"],
 "data": [
  ["CC[C@H](C)[C@H](NC(=O)[C@@H]1CCCN1C(=O)[C@H](CSS/C(=C/Cl)CCCCCC(=O)Oc1c(F)c(F)c(F)c(F)c1F)NC(C)=O)C(=O)N[C@@H](CCSC)C(=O)N[C@@H](CCC(=O)O)C(=O)N[C@@H](CC(=O)O)C(=O)N[C@@H](CCCNC(=N)N)C(=O)N[C@@H](CCCCN)C(=O)N1CCC[C@H]1C(N)=O [Ac-Cys(S-linker 3d-OPfp)-Pro-Ile-Met-Glu-Asp-Arg-Lys-Pro-NH2]", 78]
]}
